For each of the compounds below, state its residual activity.
- subject-of-test: Death-associated protein kinase 2 (Homo sapiens) (UniProt Q9UIK4)
- Sequence (Q9UIK4 whole entry, looked up): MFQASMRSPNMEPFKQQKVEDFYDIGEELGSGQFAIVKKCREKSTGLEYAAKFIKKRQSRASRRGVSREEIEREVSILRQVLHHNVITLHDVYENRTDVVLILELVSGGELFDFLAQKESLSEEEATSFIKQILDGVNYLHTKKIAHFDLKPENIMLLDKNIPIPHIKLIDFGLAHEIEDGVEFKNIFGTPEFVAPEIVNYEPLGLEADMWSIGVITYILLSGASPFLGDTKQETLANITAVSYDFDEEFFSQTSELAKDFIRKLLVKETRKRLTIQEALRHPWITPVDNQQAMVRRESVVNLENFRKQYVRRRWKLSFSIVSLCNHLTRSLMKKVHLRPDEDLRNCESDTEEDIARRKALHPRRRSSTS
- test-settings: at 10 µM
One number for each entry, in %.

line-notation: COc1cc2ncnc(Nc3ccc(NC(=O)c4ccccc4)cc3)c2cc1OC
subject-of-test: Death-associated protein kinase 2 (Homo sapiens) (UniProt Q9UIK4)
meas-value: 106

line-notation: COc1ccc(OC)c2c(=S)c3ccccc3[nH]c12
subject-of-test: Death-associated protein kinase 2 (Homo sapiens) (UniProt Q9UIK4)
meas-value: 95

line-notation: Cn1nc2c3c(cccc31)C(=O)c1ccccc1-2
subject-of-test: Death-associated protein kinase 2 (Homo sapiens) (UniProt Q9UIK4)
meas-value: 76

line-notation: CCC(=O)Nc1ccc2ncnc(Nc3cccc(Br)c3)c2c1
subject-of-test: Death-associated protein kinase 2 (Homo sapiens) (UniProt Q9UIK4)
meas-value: 107

line-notation: Cn1cc(/C=C2\C(=O)Nc3ccc(S(N)(=O)=O)cc32)c2ccccc21
subject-of-test: Death-associated protein kinase 2 (Homo sapiens) (UniProt Q9UIK4)
meas-value: 94

I'm hoping you can list residual activity for every compound here, please.
1. Cc1ccc(S(=O)(=O)/C=C/C#N)cc1
2. Cc1cc(Nc2nc(-c3ccccc3)nc3ccccc23)n[nH]1
3. Cn1cnc2cc3c(Nc4cccc(Br)c4)ncnc3cc21
4. COc1cc2ncnc(N3CCN(C(=O)Nc4ccc(Oc5ccccc5)cc4)CC3)c2cc1OC
5. CC(C)n1cnc2/c(=N/c3cccc(Cl)c3)nc(NCCO)[nH]c21

1. 105
2. 11
3. 113
4. 112
5. 98

State its residual activity: COc1cc2ncnc(Nc3ccc(Oc4ccccc4)cc3)c2cc1OC 118
